- System name: T1, human Trop2 on cells (human, UniProt P09758 27-323)
- T1 sequence (looked up): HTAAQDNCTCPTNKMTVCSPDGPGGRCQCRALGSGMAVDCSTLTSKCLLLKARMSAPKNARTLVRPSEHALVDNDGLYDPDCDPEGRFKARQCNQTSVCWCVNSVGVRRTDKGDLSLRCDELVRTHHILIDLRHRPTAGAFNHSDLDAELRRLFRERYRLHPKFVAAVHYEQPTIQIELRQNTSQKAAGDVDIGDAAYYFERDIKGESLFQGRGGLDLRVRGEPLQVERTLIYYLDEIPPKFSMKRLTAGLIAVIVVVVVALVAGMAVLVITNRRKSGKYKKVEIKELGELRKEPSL
- Measurement description: cell-based or functional assay
Quantity name: ADCC (donor 2153#) Maximum cell killing % (%)
Answers are plain numbers, in %.

# annotated cases, reported ADCC (donor 2153#) Maximum cell killing % shown
PR001165 (antibody, human IgG1, kappa, V domains shown, fully human IgG1/kappa; also called antibody No. (26)) VH: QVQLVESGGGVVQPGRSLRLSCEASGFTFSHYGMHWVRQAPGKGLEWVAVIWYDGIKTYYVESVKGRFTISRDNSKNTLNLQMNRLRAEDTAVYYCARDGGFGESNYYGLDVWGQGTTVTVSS VL: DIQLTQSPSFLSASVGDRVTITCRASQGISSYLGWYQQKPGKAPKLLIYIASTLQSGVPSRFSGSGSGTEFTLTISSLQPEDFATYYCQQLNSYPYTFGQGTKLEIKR: 70.8
PR001142 (antibody, human IgG1, kappa, V domains shown, fully human IgG1/kappa; also called antibody No. (9)) VH: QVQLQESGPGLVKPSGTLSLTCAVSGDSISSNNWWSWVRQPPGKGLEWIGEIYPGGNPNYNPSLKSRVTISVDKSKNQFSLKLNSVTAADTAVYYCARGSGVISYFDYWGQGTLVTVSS VL: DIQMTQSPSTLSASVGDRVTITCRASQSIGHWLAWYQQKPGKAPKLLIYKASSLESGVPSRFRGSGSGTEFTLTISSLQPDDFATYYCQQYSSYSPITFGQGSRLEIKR: 58.8
PR001166 (antibody, human IgG1, kappa, V domains shown, fully human IgG1/kappa; also called antibody No. (27)) VH: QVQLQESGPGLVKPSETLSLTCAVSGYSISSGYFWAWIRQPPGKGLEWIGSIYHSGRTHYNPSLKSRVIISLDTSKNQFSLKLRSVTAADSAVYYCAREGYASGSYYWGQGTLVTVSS VL: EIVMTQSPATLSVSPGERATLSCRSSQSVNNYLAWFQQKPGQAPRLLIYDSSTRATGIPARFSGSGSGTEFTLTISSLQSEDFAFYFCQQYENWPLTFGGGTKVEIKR: 69.1

Now consider the entry below.
Any idea what ADCC (donor 2153#) Maximum cell killing % was measured for comparative example 2 antibody Tab (hRS7) (antibody, human IgG1, kappa, V domains shown, prepared on the basis of sacituzumab govitecan (ChemPartner, #T07-001); naked antibody) VH: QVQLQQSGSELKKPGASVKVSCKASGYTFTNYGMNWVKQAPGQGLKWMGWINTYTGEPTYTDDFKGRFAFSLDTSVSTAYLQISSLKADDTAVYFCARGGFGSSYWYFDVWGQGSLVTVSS VL: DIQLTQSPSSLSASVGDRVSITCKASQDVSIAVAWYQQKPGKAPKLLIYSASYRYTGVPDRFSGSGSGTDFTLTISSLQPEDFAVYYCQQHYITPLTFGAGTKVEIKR ?
62.6
